Test system: MS2 coat protein
Procedure text: apparent KD of MS2 coat protein; designed switch direction (-1 OFF switch, 1 ON switch): -1; higher = weaker reporter binding
Condition label: input ligand: microRNA oligo, concentration not stated
Readout kind: apparent KD of MS2 coat protein

Worked set:
[[record]]
query_sequence = "UUUGUAUAGCAAGGAUAUGUUUAAUUAUAGUUGCCUCAUACAUGAGGAUCACCCAUGUUUUACUUACAGAAGGUGCAAUGAUUU [JR_ExcNG2_Sub035] (Eterna round: R96, puzzle: Exclusion NG 2)"
result = "242 nM"

[[record]]
query_sequence = "CGUCGAAAUGUAGGAUAUCUGCACGUUUAGUGCAGAGAAGGACAUGAGGAUCACCCAUGUAGAUCACGACGAAUUAAUUUAAUU [ENG1/5-C2] (Eterna round: R96, puzzle: Exclusion NG 1)"
result = "47.3 nM"


Annotate the sequence GACGCUGACCGAGGAUAUACAAUAAAACAACAAACUCCUCGUGUCAGAACAUGAGGAUCACCCAUGUAGAAGGCGGCAGGUCUA [Rilebibidi] (Eterna round: R96, puzzle: Exclusion NG 2) with its measured apparent KD of MS2 coat protein.
44.4 nM
